# system.tested: HCV E1E2 antigen, isolate UKN6.5.8 (hepatitis C virus, isolate UKN6.5.8)
# procedure.details: ELISA, Fab on E1E2 antigen
Reported values of OD 450 nm for individual entries
readout.kind: OD 450 nm

- Fab V1 (Fab, V domains shown) VH: VQLLEQSGAEVQKPGASVKVSCKPSGYIFTNFGISWVRQAPGQGLEWMAWINTYNGKTTYAQSLQGRVTLTTDPYTNTVFMELRSLRSDDTAVYYCARENEGEYVWGHFRSDYWGQGTLVTVSS VL: ELTQSPSSLSASVGDRVTITCQASQDISNFLNWYQRRPGKAPNLLIYDATHLETGVPSRFSGSGFGTHFTLTINSLQPEDIGTYYCQHFDDVPSFTFGPGTKVDLKR: 0.05 OD 450 nm
- Fab R1 (Fab, V domains shown) VH: VQLLEQSGAEVKKPGASVKVSCKASGYTFSIYGVAWVRQAPGQGLEWMGWISPQNGDTHSPQKFQGRLTMTTDTSTSTAYMELRSLRSDDTAVYFCARDYGVNFGGGSEHNLDYWGRGTRVTVSS VL: ELTQSPLSLPVTPGEPASISCRSSYSLLHINGYKYLDWYLQRPGQSPQLLIYLGSNRAPGVPDRFSGSGSGTSFTLKISRVEAEDVGVYYCMQSLQAPWTFGQGTKVEMKR: 0.05 OD 450 nm
- Fab O1 (Fab, V domains shown) VH: VQLLEQSGAEVKKAGESVRLSCKASGYRFGDYWIAWVRQLPGRAPEWMGIIYPDDSDTKYSPSFQGQVTISADKSIRTTFLDWGSLKASDTAIYYCARGCLGAKCYYPHYYYGLDVWGQGTTVIVSS VL: ELTQSPSSLSASVGDRVTITCRATQGIDNYLNWYQQKPGKPPRLLIYGASSLQSGVPSRFSGGGSGTHFTLTITNLQPEDFATYYCQQSYSTPPETFGQGTKVEIKR: 0.02 OD 450 nm
